Quick reference for pIC50 among some compounds
Test system: 20-HETE synthase derived from rat kidney microsome
Assay: Inhibitory effect of 20-HETE synthase derived from rat kidney microsome
Type: biochemical
Details: concentration at which 20-HETE production was inhibited to 50%; SHR rat kidney microsome
pIC50: −log10 of the molar value.
readout_type: pIC50

INSERT INTO assay_data (compound, assayed_target, reported) VALUES
  ('CCCCOc1ccc(N/C=N/O)cn1 [Comp. 10]', '20-HETE synthase derived from rat kidney microsome', 6.78),
  ('O/N=C/Nc1ccc(OCc2cc(F)ccc2F)nc1 [Comp. 73]', '20-HETE synthase derived from rat kidney microsome', 8.19),
  ('CC#CCOc1ccc(N/C=N/O)cn1 [Comp. 65]', '20-HETE synthase derived from rat kidney microsome', 7.17),
  ('O/N=C/Nc1ccc(OCCCn2cccc2)nc1 [Comp. 91]', '20-HETE synthase derived from rat kidney microsome', 8.19),
  ('C=CCCCOc1ccc(N/C=N/O)cn1 [Comp. 54]', '20-HETE synthase derived from rat kidney microsome', 8.23),
  ('O/N=C/Nc1ccc(OCc2ccco2)nc1 [Comp. 3]', '20-HETE synthase derived from rat kidney microsome', 7.30),
  ('O/N=C/Nc1ccc(OCCCc2ccncc2)nc1 [Comp. 37]', '20-HETE synthase derived from rat kidney microsome', 8.47),
  ('O/N=C/Nc1ccc(OCCc2cccs2)nc1 [Comp. 98]', '20-HETE synthase derived from rat kidney microsome', 8.37),
  ('CCN(CC)CCSc1ccc(N/C=N/O)cn1 [Comp. 127]', '20-HETE synthase derived from rat kidney microsome', 6.48),
  ('CCCCOCCOc1ccc(N/C=N/O)cn1 [Comp. 61]', '20-HETE synthase derived from rat kidney microsome', 7.88),
  ('O/N=C/Nc1ccc(OCCOc2ccccc2)nc1 [Comp. 94]', '20-HETE synthase derived from rat kidney microsome', 8.49),
  ('CC(C)Sc1ccc(N/C=N/O)cn1 [Comp. 102]', '20-HETE synthase derived from rat kidney microsome', 7.74),
  ('C#CCOc1ccc(N/C=N/O)cn1 [Comp. 121]', '20-HETE synthase derived from rat kidney microsome', 6.40),
  ('O/N=C/Nc1ccc(OCCc2ccccn2)nc1 [Comp. 5]', '20-HETE synthase derived from rat kidney microsome', 7.83),
  ('O/N=C/Nc1ccc(OCCCc2ccccc2)nc1 [Comp. 14]', '20-HETE synthase derived from rat kidney microsome', 8.82),
  ('CC#CCCOc1ccc(N/C=N/O)cn1 [Comp. 46]', '20-HETE synthase derived from rat kidney microsome', 8.01);

###

Test system: 20-HETE synthase derived from rat kidney microsome
Assay: Inhibitory effect of 20-HETE synthase derived from rat kidney microsome
Assay type: biochemical
Settings: concentration at which 20-HETE production was inhibited to 50%; SHR rat kidney microsome
Quick reference for IC50 among some molecules
readout_type: IC50 (µM)

INSERT INTO measurements (entry_smiles, reported) VALUES
  ('CN1CCC(CCOc2ccc(N/C=N/O)cn2)CC1', 0.312),
  ('CN(C)CCCOc1ccc(N/C=N/O)cn1', 0.566),
  ('O/N=C/Nc1ccc(OCc2ccncc2)nc1', 0.0039),
  ('CSCCOc1ccc(N/C=N/O)cn1', 0.0719),
  ('N#Cc1cccc(COc2ccc(N/C=N/O)cn2)c1', 0.0017),
  ('O/N=C/Nc1ccc(OCc2ccccc2)nc1', 0.0091);

###

readout_type: melting point

INSERT INTO measurements (molecule, reported) VALUES
  ('COCCOc1ccc(N/C=N/O)cn1', '104.5 to 106 °C'),
  ('CN(C)CCOc1ccc(N/C=N/O)cn1', '105 to 106 °C'),
  ('C=CCCCOc1ccc(N/C=N/O)cn1', '120 to 122 °C'),
  ('O/N=C/Nc1ccc(SCc2ccccc2)nc1', '133 to 135 °C'),
  ('CCOCCCOc1ccc(N/C=N/O)cn1', '99 to 100 °C'),
  ('C#CCCCOc1ccc(N/C=N/O)cn1', '124.5 to 125.5 °C'),
  ('CCN(CC)CCCC(C)Oc1ccc(N/C=N/O)cn1 (stereo not drawn)', '122 °C (dec.)'),
  ('CN(C)CC(C)(C)COc1ccc(N/C=N/O)cn1', '74 to 76.5 °C'),
  ('O/N=C/Nc1ccc(OCCCn2cccc2)nc1', '140 to 141 °C'),
  ('CSCCCOc1ccc(N/C=N/O)cn1', '109 to 111 °C'),
  ('N#Cc1cccc(COc2ccc(N/C=N/O)cn2)c1', '166.5 to 167 °C'),
  ('COc1ccc(COc2ccc(N/C=N/O)cn2)cc1', '164.5 to 165.5 °C');

###

Quick reference for melting point among some compounds
readout_type: melting point

INSERT INTO assay_data (entry_smiles, reported) VALUES
  ('CCCCOc1ccc(N/C=N/O)cn1', '127 to 128 °C'),
  ('O/N=C/Nc1ccc(SCc2ccco2)nc1', '140.5 to 141.5 °C'),
  ('O/N=C/Nc1ccc(OCc2ccccc2)nc1', '163.5 to 164 °C'),
  ('CSCCOc1ccc(N/C=N/O)cn1', '111.5 to 112 °C'),
  ('O/N=C/Nc1ccc(OCc2ccc(F)cc2)nc1', '166.5 to 167.5 °C'),
  ('CCCCOCCOc1ccc(N/C=N/O)cn1', '113 to 114.5 °C');

###

Quick reference for melting point among some molecules
readout_type: melting point

INSERT INTO assay_data (molecule, reported) VALUES
  ('CC#CCCOc1ccc(N/C=N/O)cn1', '151 to 152 °C'),
  ('O/N=C/Nc1ccc(OCCc2ccsc2)nc1', '138 to 140 °C'),
  ('COc1cccc(COc2ccc(N/C=N/O)cn2)c1OC', '128.5 to 129 °C'),
  ('C/C=C/COc1ccc(N/C=N/O)cn1', '143 to 144.5 °C'),
  ('O/N=C/Nc1ccc(OCC2CCCCO2)nc1 (stereo not drawn)', '149.5 to 152.5 °C'),
  ('COc1ccccc1COc1ccc(N/C=N/O)cn1', '146.5 to 147.5 °C'),
  ('CCN(CC)CCSc1ccc(N/C=N/O)cn1', '124.5 to 125.5 °C'),
  ('OCCSc1ccc(N/C=N/O)cn1', '115 to 115.5 °C'),
  ('CCC(C)Sc1ccc(N/C=N/O)cn1 (stereo not drawn)', '125.5 to 127.5 °C'),
  ('CC(C)(COc1ccc(N/C=N/O)cn1)CN1CCCCC1', '91 to 93 °C'),
  ('CN1CCCC(COc2ccc(N/C=N/O)cn2)C1 (stereo not drawn)', '122 to 124 °C'),
  ('OCCCSc1ccc(N/C=N/O)cn1', '105 to 105.5 °C');

###

Test system: 20-HETE synthase derived from rat kidney microsome
Assay: Inhibitory effect of 20-HETE synthase derived from rat kidney microsome
Format: biochemical
Conditions: concentration at which 20-HETE production was inhibited to 50%; SHR rat kidney microsome
pIC50: −log10 of the molar value.
Label criterion met when pIC50 >= 7; otherwise criterion not met.

INSERT INTO measurements (compound, classification) VALUES
  ('COc1ccccc1COc1ccc(N/C=N/O)cn1', 'criterion met'),
  ('O/N=C/Nc1ccc(SCc2ccco2)nc1', 'criterion met'),
  ('CSCCCOc1ccc(N/C=N/O)cn1', 'criterion met'),
  ('CC(C)Oc1ccc(N/C=N/O)cn1', 'criterion not met'),
  ('O/N=C/Nc1ccc(OCC2CCCCO2)nc1 (stereo not drawn)', 'criterion met'),
  ('O/N=C/Nc1ccc(OCC2COCO2)nc1 (stereo not drawn)', 'criterion not met'),
  ('COc1ccc(COc2ccc(N/C=N/O)cn2)cc1', 'criterion met'),
  ('Cc1ncsc1CCOc1ccc(N/C=N/O)cn1', 'criterion met'),
  ('COc1cccc(COc2ccc(N/C=N/O)cn2)c1', 'criterion met'),
  ('O/N=C/Nc1ccc(SC2CCCC2)nc1', 'criterion met');

###

Test system: 20-HETE synthase derived from rat kidney microsome
Test: Inhibitory effect of 20-HETE synthase derived from rat kidney microsome
Type: biochemical
Conditions: concentration at which 20-HETE production was inhibited to 50%; SHR rat kidney microsome
pIC50: −log10 of the molar value.
readout_type: pIC50

INSERT INTO measurements (compound, reported) VALUES
  ('O/N=C/Nc1ccc(OCCC2CCCCC2)nc1 [Comp. 22]', 8.68),
  ('COCCOCCOc1ccc(N/C=N/O)cn1 [Comp. 12]', 7.06),
  ('OCCSc1ccc(N/C=N/O)cn1 [Comp. 107]', 6.53),
  ('COc1ccccc1CCOc1ccc(N/C=N/O)cn1 [Comp. 69]', 8.19),
  ('O/N=C/Nc1ccc(OCCCc2cccnc2)nc1 [Comp. 33]', 8.68),
  ('C/C=C/COc1ccc(N/C=N/O)cn1 [Comp. 45]', 7.97);
